tested-on: T1, TNFR1 (Homo sapiens, UniProt P19438)
T1 chain: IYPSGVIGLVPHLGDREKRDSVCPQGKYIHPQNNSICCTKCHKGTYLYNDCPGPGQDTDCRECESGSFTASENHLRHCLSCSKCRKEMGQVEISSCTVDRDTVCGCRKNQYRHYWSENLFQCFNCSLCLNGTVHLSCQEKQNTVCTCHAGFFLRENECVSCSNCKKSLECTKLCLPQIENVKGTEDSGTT
assay-overview: yeast display SC50
Label key: condition met means apparent Kd (screen) under 600 pM; condition not met means apparent Kd (screen) of 600 pM or more.

{"binder": "D40A (designed binder) MTLQELLREEALRRAEAEAFRYALELLAEKFPEQKEYLLALAEEIESQIRSLSGVDVEDVRKFLDKEWAWVKELLAEHPAELAEVEAARAARLAELRAEVEAKVAA", "answer-label": "condition met"}

Input line: Dear reviewer, please state whether L39A (designed binder) MTLQELLREEALRRAEAEAFRYALELLAEKFPEQKEYLADLAEEIESQIRSLSGVDVEDVRKFLDKEWAWVKELLAEHPAELAEVEAARAARLAELRAEVEAKVAA has apparent Kd (screen) strictly beneath 600 pM.
Output line: condition not met

Input line: Dear colleague, could you confirm whether apparent Kd (screen) of L12K (designed binder) MTLQELLREEAKRRAEAEAFRYALELLAEKFPEQKEYLLDLAEEIESQIRSLSGVDVEDVRKFLDKEWAWVKELLAEHPAELAEVEAARAARLAELRAEVEAKVAA falls below 600 pM? Thanks.
Output line: condition met

Input line: Confirm or reject: apparent Kd (screen) of L52G (designed binder) MTLQELLREEALRRAEAEAFRYALELLAEKFPEQKEYLLDLAEEIESQIRSGSGVDVEDVRKFLDKEWAWVKELLAEHPAELAEVEAARAARLAELRAEVEAKVAA lies strictly below 600 pM
Output line: condition not met

Input line: Dear colleague, could you confirm whether apparent Kd (screen) of V60Y (designed binder) MTLQELLREEALRRAEAEAFRYALELLAEKFPEQKEYLLDLAEEIESQIRSLSGVDVEDYRKFLDKEWAWVKELLAEHPAELAEVEAARAARLAELRAEVEAKVAA falls below 600 pM? Thanks.
Output line: condition met

Input line: Check if apparent Kd (screen) falls below 600 pM for A87C (designed binder) MTLQELLREEALRRAEAEAFRYALELLAEKFPEQKEYLLDLAEEIESQIRSLSGVDVEDVRKFLDKEWAWVKELLAEHPAELAEVECARAARLAELRAEVEAKVAA .
Output line: condition met
